- Procedure Details: NCI Yeast Anticancer Drug Screen. Data for the cln2 rad14 strain (AID 165)
- Condition Set: S. cerevisiae cln2 rad14 strain, at 50.0 µM
Compounds without any hit were thinned out: in the full panel of roughly 79,000, 15% have a hit. The source made the active and inactive calls. Cut-off read from the data, not from the text of the source: active = growth inhibition above about 70%; inactive = the rest.
Your answer must be one of the following: y (active), n (inactive)

O=[N+]([O-])c1ccc(S(=O)(=O)N/N=C\c2cc([N+](=O)[O-])ccc2O)cc1
n
COc1ccc(C(c2ccccc2)c2ccc(OC)cc2)cc1
n
CCOc1ccc(-c2nc(-c3oc4ccccc4c(=O)c3OC(C)=O)cs2)cc1
n
C/C(=N/Nc1ccc([N+](=O)[O-])cc1[N+](=O)[O-])C(C)(C)C
n
COC(=O)C1(C2(C(=O)OC)NC(C)=C(c3ccccc3)C(=O)O2)NC(C)=C(c2ccccc2)C(=O)O1 (configuration not stated)
n
Nc1nc2c(c(-c3ccc(Cl)cc3)n1)CN(c1ccc(Br)cc1)C2=O
n

Q: Status in this test for `C/C(=C\Cc1cc(O)c(C)cc1O)CC/C=C(\C)Cc1cc(C)co1` ?
A: n

Q: Status in this test for `c1ccc2c(-c3c[nH]c4ccccc34)c[nH]c2c1` ?
A: n
